Just for reference, paper PMC9482650 is where these values come from.

- System: DLG1_2, Q12959
- Sequence (Q12959 314-412): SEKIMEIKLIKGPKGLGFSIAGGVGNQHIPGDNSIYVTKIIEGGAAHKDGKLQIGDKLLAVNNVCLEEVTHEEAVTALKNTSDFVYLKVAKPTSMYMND
- Assay info: holdup assay
- Parameters: key: below the threshold = too weak to quantify, mostly under pKd 3.1 to 4
- Condition set: plain residues with an end cap or a label only (N-terminal biotin on a linker: ttds)
Outcome label depends on pKd relative to 5: at/above gives Met, below gives Not met.

Some entries whose results are on file:
SVWLRKETRV [CYSLTR2, Q9NS75] :: Met
ERKLSSESQV [LRP4, O75096] :: Not met
PKTPPTDTSV [KIR3DL3, Q8N743] :: Not met

Now for a further binder.
INPUT: Hi team, for QSARYRDTEL [TJP2, Q9UDY2] , is the recorded pKd at or above 5?
OUTPUT: Not met
